System: virus strain S (R13080)
Assay: microbe, parasite or virus in culture
Format: cell-based, HIV
Conditions: FR=EC50(mutant strain)/EC50(HIV-1 strain LAI); strain S
Classes are defined on fold resistance (FR), strain S with ranges b0 (below 2), b1 (2 to below 20), b2 (20 or more)

A selection of reference data follows.
Which class holds CC(C)CN(C[C@@H](O)[C@H](Cc1ccccc1)NC(=O)O[C@H]1CCOC1)S(=O)(=O)c1ccc2nc(NCCN(C)C)sc2c1 [Compound 90] ?
b2

Which class holds CC(C)CN(C[C@@H](O)[C@H](Cc1ccccc1)NC(=O)O[C@H]1CO[C@H]2OCC[C@H]21)S(=O)(=O)c1ccc2nc(N3CCN(C)CC3=O)sc2c1 [Compound 26] ?
b2

Which class holds CC(C)CN(CC(O)C(Cc1ccccc1)NC(=O)OC1CCOC1)S(=O)(=O)c1ccc2nc(NCCN(C)C)sc2c1 (centres unmarked) [Compound 56] ?
b2

Which class holds CC(C)CN(CC(O)C(Cc1ccccc1)NC(=O)OC1COC2OCCC12)S(=O)(=O)c1ccc2nc(NC(=O)CN3CCNCC3)sc2c1 (mixture of isomers) [Compound 5] ?
b0

Which class holds CC(C)CN(C[C@@H](O)[C@H](Cc1ccccc1)NC(=O)O[C@H]1CO[C@H]2OCC[C@H]21)S(=O)(=O)c1ccc2nc(NCCCN(C)C)sc2c1 [Compound 22] ?
b0

Which class holds Cc1c(N)cccc1C(=O)N[C@@H](Cc1ccccc1)[C@H](O)CN(CC(C)C)S(=O)(=O)c1ccc2nc(NCCN(C)C)sc2c1 [Compound 39] ?
b1

Which class holds CC(=O)N(C)c1nc2ccc(S(=O)(=O)N(CC(C)C)C[C@@H](O)[C@H](Cc3ccccc3)NC(=O)c3cccc(O)c3C)cc2s1 [Compound 83] ?
b2

Which class holds COC(=O)CNc1nc2ccc(S(=O)(=O)N(CC(C)C)CC(O)C(Cc3ccccc3)NC(=O)OC3COC4OCCC34)cc2s1 (mixture of isomers) [Compound 6] ?
b2

Which class holds CC(C)CN(C[C@@H](O)[C@H](Cc1ccccc1)NC(=O)O[C@H]1CO[C@H]2OCC[C@H]21)S(=O)(=O)c1ccc2nc(NC(=O)CN3CCCC3)sc2c1.O=C(O)/C=C/C(=O)O [Compound 13] ?
b0

Which class holds CC(C)CN(C[C@@H](O)[C@H](Cc1ccccc1)NC(=O)O[C@H]1CO[C@H]2OCC[C@H]21)S(=O)(=O)c1ccc2nc(NCCN(C)C)sc2c1 [Compound 16] ?
b0

Attention now shifts to the item below.
Which class holds CC(C)CN(C[C@@H](O)[C@H](Cc1ccccc1)NC(=O)OC1COC2OCCC12)S(=O)(=O)c1ccc2nc(NCCN(C)C)sc2c1 (mixture of isomers) [Compound 4] ?
b1

* * *

Can you tell me fold resistance (FR), strain D for the items I'm about to list?
Test system: clinically isolated HIV strain D
Assay: Antiviral spectrum, cellular assay (fold resistance), strain D
Assay type: cell-based
Conditions: FR=EC50(mutant strain)/EC50(HIV-1 strain LAI)
One number for each entry.

The following compounds have reported results that may help.
Which measured fold resistance (FR), strain D value corresponds to `Cc1cccc(C)c1OCC(=O)N[C@@H](Cc1ccccc1)[C@H](O)CN(CC(C)C)S(=O)(=O)c1ccc2nc(NC(=O)CN3CCCC3)sc2c1` ?
1.4

Which measured fold resistance (FR), strain D value corresponds to CC(=O)N(C)c1nc2ccc(S(=O)(=O)N(CC(C)C)CC(O)C(Cc3ccccc3)NC(=O)OC3COC4OCCC34)cc2s1 (mixture of isomers) ?
5.7

Which measured fold resistance (FR), strain D value corresponds to `CC(C)CN(C[C@@H](O)[C@H](Cc1ccccc1)NC(=O)O[C@H]1CO[C@H]2OCC[C@H]21)S(=O)(=O)c1ccc2nc(NC(=O)CN3CCCC3)sc2c1.Cl` ?
0.2

Field: fold resistance (FR), strain D. Fill in for each record below.
1. CC(C)CN(C[C@@H](O)[C@H](Cc1ccccc1)NC(=O)O[C@H]1CO[C@H]2OCC[C@H]21)S(=O)(=O)c1ccc2nc(NC(=O)CN3CCCC3)sc2c1.O=C(O)C(=O)O
2. CCOC(=O)Nc1nc2ccc(S(=O)(=O)N(CC(C)C)CC(O)C(Cc3ccccc3)NC(=O)OC3COC4OCCC34)cc2s1 (stereo not drawn)
3. Cc1cc(N)ccc1C(=O)NC(Cc1ccccc1)C(O)CN(CC(C)C)S(=O)(=O)c1ccc2nc(NC(=O)CN(C)C)sc2c1 (stereo not drawn)

1. 0.3
2. 0.3
3. 0.9
